Let's look at some binders and their measured SPOT peptide array binding signal intensity.
# Measured on: AgBzz1-D2
# Experiment summary: SPOT peptide array binding signal intensity (averaged, normalized) (arbitrary units (background-subtracted, floor 0; scale differs between SH3 domains)); higher = stronger binding of the SH3 domain to the peptide
Reply briefly: the number, and no unit.

Worked cases, SPOT peptide array binding signal intensity given:
In [3]: df
Out[3]:
            binder  value_measured
0  RPVPPPPPMRTTTEG            14.5
1  LKQRFFLMFPKSIIW              44
2  HGKRRAPLLLAKLDV            34.5

Entry PSRRAPLQLPQLVNK ; SPOT peptide array binding signal intensity = 35

The reported SPOT peptide array binding signal intensity of the binder TPRLSLPRLPNKHHW was 23.5

GET /value?item= NPLPKEPRLPKRKVA &field=SPOT peptide array binding signal intensity returns 78.5

Form field SPOT peptide array binding signal intensity, entry GQYRRTIVIPRRFFT : 21

Measured SPOT peptide array binding signal intensity of GLRRARYKFPGQQKI : 26

// recorded SPOT peptide array binding signal intensity for FYNRTAFQLPGDARV : 39

So, HRRRRVFSIPSLKSI ? Its SPOT peptide array binding signal intensity was 28.5

Entry under test: KDKKTKPTPPPKPSH . Its SPOT peptide array binding signal intensity was 48

The binder identified as FLIKFTPKFPQSIDH registered its SPOT peptide array binding signal intensity at 229

Form: binder = ATKSASPTLPTRRSR ; SPOT peptide array binding signal intensity = 45

Record DLPLPDLPPEPPTEL , field SPOT peptide array binding signal intensity: 2

SPOT peptide array binding signal intensity in this record for NPTKSPPPPPSPSTM : 63.5

The reported value for TTAPALPSLPPPPLL in terms of SPOT peptide array binding signal intensity is 25

// sample LEFRAILFIPKRAPF , its SPOT peptide array binding signal intensity was 37

Per the record, VKPRQLFPIPLNKVD has SPOT peptide array binding signal intensity of 40.5

Please fill in: SPOT peptide array binding signal intensity reported for LYKRKPILLPDPKPL = 70

Data provenance: the supplement of paper PMC4466140
